Test: NCI Yeast Anticancer Drug Screen. Data for the sgs1 mgt1 strain (AID 161);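 also: 0% = growth of cultures given vehicle only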
Conditions: S. cerevisiae sgs1 mgt1 strain, at 50.0 µM (retest, dose inferred, filed as 5.0), hits give high values
This is part of a sample that, as a whole, favours compounds with a hit. Of some 79,000 tested, about 15% had one in any assay.
Returns one of class 1 or class 0; class 1 when growth inhibition is >= 50%.

[[record]]
molecule = "NC1CCCCC1N.Nc1c(N=Nc2ccc(-c3ccc(N=Nc4cc(S(=O)(=O)[O-])c5ccccc5c4N)cc3)cc2)cc(S(=O)(=O)[O-])c2ccccc12.[OH3+].[OH3+].[Pt+4]"
answer_label = "class 1"

[[record]]
molecule = "COC1=C(OC)C(=O)C(Sc2ccc3ccccc3c2)=CC1=O"
answer_label = "class 1"

[[record]]
molecule = "Cc1cc(C(C)(C)C)c(OCCCN2CCOCC2)c(C(C)(C)C)c1"
answer_label = "class 0"

[[record]]
molecule = "COC(=O)NC1C(C)OC(OC2C/C=C(/C)C3C=CC4C(OC5CC(OC6CC(O)C(OC7CC(O)C(OC)C(C)O7)C(C)O6)C(O)C(C)O5)C(C)CC(C)C4C3(C)/C(O)=C3\\C(=O)OC4(CC(C)C(CO)=CC4/C=C\\2C)C3=O)CC1(C)[N+](=O)[O-] (stereo not drawn)"
answer_label = "class 0"

[[record]]
molecule = "Cc1cc2c3ccccc3c3ccccc3c2nn1"
answer_label = "class 0"

[[record]]
molecule = "NC(N)=NS(=O)(=O)c1ccc(Nc2c3ccccc3nc3c(C(=O)NCCO)cccc23)cc1"
answer_label = "class 0"

[[record]]
molecule = "Nc1nc(N)c2nc(CNc3ccc(C(=O)NC(CCC(=O)O)C(=O)O)cc3F)cnc2n1 (stereo not drawn)"
answer_label = "class 1"


###

Assay: NCI Yeast Anticancer Drug Screen. Data for the sgs1 mgt1 strain (AID 161);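 also: 0% = growth of cultures given vehicle only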
Conditions: S. cerevisiae sgs1 mgt1 strain, at 50.0 µM (retest, dose inferred, filed as 5.0), hits give high values
The panel holds about 79,000 compounds, 15% with a hit somewhere; the sample as a whole holds those more often.
Measured growth inhibition, listed per entry.
Quantity Name: growth inhibition (%)

[[record]]
compound = "CC(=O)OCC(C)Cc1cc2c(cc1Br)OCO2 (stereo unspecified)"
quantity_name = "growth inhibition"
endpoint_value = 72

[[record]]
compound = "O=C(NCCCNCCN1C(=O)c2cccc3cc([N+](=O)[O-])cc(c23)C1=O)c1cc(-c2ccccc2)nc2ccccc12"
quantity_name = "growth inhibition"
endpoint_value = 96

[[record]]
compound = "CC12C(=O)OC(=O)C(c3ccccc31)c1ccccc12"
quantity_name = "growth inhibition"
endpoint_value = 21

[[record]]
compound = "CCOC1=C/C(=N\\Nc2ccc([N+](=O)[O-])cc2)CCC1"
quantity_name = "growth inhibition"
endpoint_value = 21

[[record]]
compound = "O=[N+]([O-])c1cc(Cl)cnc1Br"
quantity_name = "growth inhibition"
endpoint_value = -19

[[record]]
compound = "OCC(CO)C(c1cccc2ccccc12)c1cccc2ccccc12"
quantity_name = "growth inhibition"
endpoint_value = 100


###

Assay: NCI Yeast Anticancer Drug Screen. Data for the rad18 strain (AID 177)
Settings: S. cerevisiae rad18 mutant growth inhibition; at 11.0 µM; hits give high values
This is part of a sample that, as a whole, favours compounds with a hit. Of some 79,000 tested, about 15% had one in any assay.
Quantity Name: growth inhibition (%)

[[record]]
compound = "C[Si](C)(C)/C=C/CCNC(C#N)c1ccccc1 (stereo not given)"
endpoint_value = 27

[[record]]
compound = "O=[N+]([O-])/C=C/c1cc(Cl)c(/C=C/[N+](=O)[O-])cc1Cl"
endpoint_value = 78

[[record]]
compound = "O=C1c2cccnc2C(=O)C2C3C=CC(C3)C12 (stereo not given)"
endpoint_value = 91

[[record]]
compound = "COc1cc(CSc2ccc(O)cc2)cc(O)c1O"
endpoint_value = 2

[[record]]
compound = "C=C(C(=C)n1nnc(C(=O)OC)c1C(=O)OC)n1nnc(C(=O)OC)c1C(=O)OC"
endpoint_value = 1

[[record]]
compound = "Cc1cccc(C(C)(C)C)c1NC(=O)C(C#N)C1=C(Cl)C(=O)c2ccccc2C1=O (stereo not given)"
endpoint_value = 59

[[record]]
compound = "CCOC1Oc2ccccc2-c2nc(N)ncc21 (stereo not given)"
endpoint_value = -1

[[record]]
compound = "CCOc1ccccc1N=Cc1c2ccccc2cc2ccccc12"
endpoint_value = 97

[[record]]
compound = "COc1cc([C@@H]2c3cc4c(cc3[C@H](OC3OC5COC(C(C)C)OC5C(O)C3O)C3COC(=O)[C@@H]32)OCO4)cc(OC)c1O (stereo not given in full)"
endpoint_value = 2

[[record]]
compound = "CC1SC2(C(=O)Nc3ccc(Cl)cc32)N(c2ccc(Cl)cc2)C1=O (stereo not given)"
endpoint_value = 35

[[record]]
compound = "CC[n+]1oc(C(=O)c2ccc(Cl)cc2)c(-c2ccccc2)c1-c1ccccc1.[Cl][Fe]([Cl])([Cl])[Cl]"
endpoint_value = 24

[[record]]
compound = "COc1ccc(C(NCCNC(c2ccc(OC)c(OC)c2)c2cc3c(cc2O)OCO3)c2cc3c(cc2O)OCO3)cc1OC (stereo not given)"
endpoint_value = 8

[[record]]
compound = "CCCCCCN(CCCCCC)CC(O)c1ccnc2ccc(OC)cc12 (stereo not given)"
endpoint_value = -7

[[record]]
compound = "COc1ccc(C(=O)c2ccccc2C(=O)c2ccccc2OC)cc1"
endpoint_value = -4

[[record]]
compound = "O=[N+]([O-])c1cc(S(=O)(=O)Nc2ccccc2)ccc1Nc1ccccc1"
endpoint_value = 95

[[record]]
compound = "COc1cc([C@@H]2c3cc4c(cc3[C@@H](Nc3ccc(NC(=O)c5cc([N+](=O)[O-])cn5C)cc3)[C@H]3COC(=O)[C@H]23)OCO4)cc(OC)c1O"
endpoint_value = 27

[[record]]
compound = "Cc1cc(C)nc(NS(=O)(=O)c2ccc(Nc3c4ccccc4nc4c(C(=O)NCCO)cccc34)cc2)n1"
endpoint_value = 0

[[record]]
compound = "Oc1ccc2ccccc2c1CCc1c(O)ccc2ccccc12"
endpoint_value = 46

[[record]]
compound = "NC(=O)c1c([N+](=O)[O-])cc(C(F)(F)F)cc1[N+](=O)[O-]"
endpoint_value = 4

[[record]]
compound = "CCCCN(CCCC)C(=O)/C=C/c1ccccc1"
endpoint_value = -3


###

Test: NCI Yeast Anticancer Drug Screen. Data for the rad14 strain (AID 159);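 also: 0% = growth of vehicle-treated control cultures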
Conditions: S. cerevisiae rad14 strain growth inhibition; at 100.0 µM; hits give high values
This is part of a sample that, as a whole, favours compounds with a hit. Of some 79,000 tested, about 15% had one in any assay.
Quantity Name: growth inhibition (%)

[[record]]
smiles_text = "CCCCCCCCCCCCCCCCCC(=O)NCCCN(C)C"
unit_descriptor = "%"
endpoint_value = 97

[[record]]
smiles_text = "CC(C)c1ccc(NC(=S)NC(=O)c2ccccc2)cc1"
unit_descriptor = "%"
endpoint_value = 30

[[record]]
smiles_text = "C(=Nc1ccc(-c2cc(-c3ccccc3)nc3ccc4ccccc4c23)cc1)c1ccccc1"
unit_descriptor = "%"
endpoint_value = 34

[[record]]
smiles_text = "O=C(NO)Nc1cc(Cl)cc(Cl)c1"
unit_descriptor = "%"
endpoint_value = 98

[[record]]
smiles_text = "CC(C)OC(=O)c1ccc(CCc2cc(O)c(Br)cc2O)cc1"
unit_descriptor = "%"
endpoint_value = 92

[[record]]
smiles_text = "O=[N+]([O-])c1cc(F)c(F)cc1Sc1cc(F)c(F)cc1[N+](=O)[O-]"
unit_descriptor = "%"
endpoint_value = 97


###

Assay: NCI Yeast Anticancer Drug Screen. Data for the rad50 strain (AID 155);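 also: 0% = growth of vehicle-only cultures of the same strain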
Conditions: S. cerevisiae rad50 strain growth inhibition; at 50.0 µM
The panel holds about 79,000 compounds, 15% with a hit somewhere; the sample as a whole holds those more often. Activity calls are given as the source filed them. Rule as the data show it: active = growth inhibition above about 70%; inactive = the rest.
Classes used: active, inactive

[[record]]
molecule = "CCn1c(O)c(C=Nc2ccccc2)s/c1=N/Nc1nc(-c2ccccc2)cs1"
answer_label = "inactive"

[[record]]
molecule = "CC(=O)OCC1OC2OC(=O)NC2C(OC(C)=O)C1OC(C)=O (stereo unspecified)"
answer_label = "inactive"

[[record]]
molecule = "Cc1ccc(Sc2ccccc2N)cc1"
answer_label = "active"

[[record]]
molecule = "COc1ccc(N=CN(C)C)c(C)c1"
answer_label = "active"

[[record]]
molecule = "CCOC1(c2cccc([N+](=O)[O-])c2)c2ccccc2Oc2ccccc21"
answer_label = "inactive"

[[record]]
molecule = "COc1cc(CSc2ccc(O)cc2)cc(O)c1O"
answer_label = "inactive"

[[record]]
molecule = "Cc1c(-c2ccccn2)ccc2ccccc12"
answer_label = "inactive"

[[record]]
molecule = "CCOC(=N)c1ccc(O)c(OC)c1"
answer_label = "inactive"

[[record]]
molecule = "CN(C)CCNC(=O)c1cccc2cc([N+](=O)[O-])ccc12"
answer_label = "active"

[[record]]
molecule = "O=C(Nc1ccc(Cl)cc1)Nc1nnc2nc(C(C(=O)c3cccc([N+](=O)[O-])c3Cl)c3nc4nnc(NC(=O)Nc5ccc(Cl)cc5)n4[nH]c3=O)c(=O)[nH]n12"
answer_label = "active"

[[record]]
molecule = "Nc1nc(N)c2nc(CNc3ccc(C(=O)NC(CCC(=O)O)C(=O)O)cc3F)cnc2n1 (stereo unspecified)"
answer_label = "inactive"

